Sourced from patent US20040086901A1

System: NIH3T3 cells overexpressing DAN
Protocol Summary: MTT cell viability, DAN overexpressing cells vs parental line
Assay type: cell-based, mouse
Recorded Conditions: DAN high-expressing cells / parental cell line, 3 to 4 days
Reported logarithmic value of ratio of IC40 values is given for each of the following molecules.
Assay Endpoint: logarithmic value of ratio of IC40 values

- Smiles Text: "C=CC1=C(C)c2cc3[n-]c(cc4nc(cc5[n-]c(cc1n2)c(C)c5CCC(=O)O)C(CCC(=O)O)=C4C)c(C)c3C=C.[Cl-].[Cl-].[Sn+4]"
  Value Reported: "−0.49"
- Smiles Text: "C=C1[C@@H](O)[C@@H]2O[C@]3(CC[C@H](/C=C/[C@@H](C)[C@@H]4CC(C)=C[C@@]5(O[C@H](C[C@@](C)(O)C(=O)O)CC[C@H]5O)O4)O3)CC[C@H]2O[C@@H]1[C@@H](O)C[C@H](C)[C@H]1O[C@@]2(CCCCO2)CC[C@H]1C"
  Value Reported: 0.04

* * *

System: NIH3T3 cells overexpressing HSP9O
Protocol Summary: MTT cell viability, HSP9O overexpressing cells vs parental line
Type: cell-based, mouse
Recorded Conditions: HSP9O high-expressing cells / parental cell line, 3 to 4 days
Non-standard residues stand in square brackets, D forms with d. Residues, ends and D or L forms follow the SMILES beside them. Nle = CCCC[C@H](N)C(=O)O
Could you label it satisfied if measured logarithmic value of ratio of IC40 values is 0.2 or higher, and not satisfied otherwise?

- Molecule: "O=CN/C=C/c1cc(O)ccc1O [Erbstatin, erbstatin]"
  Label Value: "satisfied"
- Molecule: "CC(=O)OCOC(=O)CN(CC(=O)OCOC(C)=O)c1ccccc1OCCOc1ccccc1N(CC(=O)OCOC(C)=O)CC(=O)OCOC(C)=O [BAPTA-AM]"
  Label Value: "satisfied"
- Molecule: "CCCC[C@@H](C)/C=C(C)/C=C(\\C)C(=O)NC1=C[C@@](O)(/C=C/C=C/C=C/C(=O)NC2=C(O)CCC2=O)[C@@H]2O[C@@H]2C1=O [Manumycin, manumycin]"
  Label Value: "not satisfied"
- Molecule: "CC(C)(C)C(=O)Oc1ccc(S(=O)(=O)Nc2ccccc2C(=O)NCC(=O)O)cc1 [compound 5046]"
  Label Value: "satisfied"
- Molecule: "C[C@@H]1O[C@@H](O[C@H]2C[C@@H](O)[C@]3(CO)[C@H]4[C@H](O)C[C@]5(C)[C@@H](C6=CC(=O)OC6)CC[C@]5(O)[C@@H]4CC[C@]3(O)C2)[C@H](O)[C@H](O)[C@H]1O [Ouabain, ouabain]"
  Label Value: "satisfied"
- Molecule: "O=c1c(-c2ccc(O)cc2)coc2cc(O)cc(O)c12 [Genistein, genistein]"
  Label Value: "satisfied"
- Molecule: "O=[As]O [NaAsO2, sodium arsenite]"
  Label Value: "not satisfied"
- Molecule: "COC[C@H]1OC(=O)c2coc3c2[C@@]1(C)C1=C(C3=O)[C@@H]2CCC(=O)[C@@]2(C)C[C@H]1OC(C)=O [Wortmannin, wortmannin]"
  Label Value: "not satisfied"
- Molecule: "CCCC[C@@H](C=O)NC(=O)[C@H](CC(C)C)NC(=O)[C@H](CC(C)C)NC(C)=O [ALLN] (Ac-Leu-Leu-[Nle]-aldehyde)"
  Label Value: "not satisfied"
- Molecule: "C=C1[C@@H](O)[C@@H]2O[C@]3(CC[C@H](/C=C/[C@@H](C)[C@@H]4CC(C)=C[C@@]5(O[C@H](C[C@@](C)(O)C(=O)O)CC[C@H]5O)O4)O3)CC[C@H]2O[C@@H]1[C@@H](O)C[C@H](C)[C@H]1O[C@@]2(CCCCO2)CC[C@H]1C [OA, okadaic acid]"
  Label Value: "not satisfied"
- Molecule: "C=C[C@]1(C)CC[C@@H](C(=C)C)C[C@H]1C(=C)C [b-elemene, β-elemene]"
  Label Value: "not satisfied"
- Molecule: "C=C[C@@]1(C)CC(=O)[C@]2(O)[C@@]3(C)[C@@H](O)CCC(C)(C)[C@@H]3[C@H](O)[C@H](OC(C)=O)[C@@]2(C)O1 [Forskolin, forskolin]"
  Label Value: "satisfied"
- Molecule: "CN[C@@H]1C[C@H]2O[C@@](C)([C@@H]1OC)n1c3ccccc3c3c4c(c5c6ccccc6n2c5c31)C(=O)NC4 [Staurosporine]"
  Label Value: "satisfied"

* * *

System: NIH3T3 cells overexpressing PKCepsilon-KN
Protocol Summary: MTT cell viability, PKCepsilon-KN overexpressing cells vs parental line
Assay type: cell-based, mouse
Recorded Conditions: PKCepsilon-KN (first of two lines) high-expressing cells / parental cell line, 3 to 4 days
Assay Endpoint: logarithmic value of ratio of IC40 values

- Compound: "CC(=O)OCOC(=O)CN(CC(=O)OCOC(C)=O)c1ccccc1OCCOc1ccccc1N(CC(=O)OCOC(C)=O)CC(=O)OCOC(C)=O"
  Value Reported: 0.00
- Compound: "COC(=O)[C@@]1(O)C[C@H]2O[C@]1(C)n1c3ccccc3c3c4c(c5c6ccccc6n2c5c31)C(=O)NC4 [K252a]"
  Value Reported: 0.00
- Compound: "O=CN/C=C/c1cc(O)ccc1O"
  Value Reported: "−0.12"
- Compound: "O=[As]O [NaAsO2, sodium arsenite]"
  Value Reported: "−0.07"

* * *

System: NIH3T3 cells overexpressing RhoA
Protocol Summary: MTT cell viability, RhoA overexpressing cells vs parental line
Format: cell-based, mouse
Recorded Conditions: RhoA high-expressing cells / parental cell line, 3 to 4 days
Non-standard residues stand in square brackets, D forms with d. Residues, ends and D or L forms follow the SMILES beside them. Nle = CCCC[C@H](N)C(=O)O
Assay Endpoint: logarithmic value of ratio of IC40 values

- Compound: "C=C[C@@]1(C)CC(=O)[C@]2(O)[C@@]3(C)[C@@H](O)CCC(C)(C)[C@@H]3[C@H](O)[C@H](OC(C)=O)[C@@]2(C)O1"
  Measured Target: "NIH3T3 cells overexpressing RhoA"
  Value Reported: 0.47
- Compound: "C/C=C(/C)C(=O)O[C@H]1C(C)=C2[C@H]([C@@H]1OC(=O)CCCCCCC)[C@@](C)(OC(C)=O)C[C@H](OC(=O)CCC)[C@@]1(O)[C@H]2OC(=O)[C@@]1(C)O"
  Measured Target: "NIH3T3 cells overexpressing RhoA"
  Value Reported: 0.26
- Compound: "CN(C)CCCn1cc(C2=C(c3c[nH]c4ccccc34)C(=O)NC2=O)c2ccccc21 [GF109203X]"
  Measured Target: "NIH3T3 cells overexpressing RhoA"
  Value Reported: 0.24
- Compound: "CNc1ccc2oc(C[C@H]3O[C@@]4(CC[C@H]3C)O[C@H]([C@H](C)C(=O)c3ccc[nH]3)[C@H](C)C[C@H]4C)nc2c1C(=O)O"
  Measured Target: "NIH3T3 cells overexpressing RhoA"
  Value Reported: 0.26
- Compound: "C=C1[C@@H](O)[C@@H]2O[C@]3(CC[C@H](/C=C/[C@@H](C)[C@@H]4CC(C)=C[C@@]5(O[C@H](C[C@@](C)(O)C(=O)O)CC[C@H]5O)O4)O3)CC[C@H]2O[C@@H]1[C@@H](O)C[C@H](C)[C@H]1O[C@@]2(CCCCO2)CC[C@H]1C"
  Measured Target: "NIH3T3 cells overexpressing RhoA"
  Value Reported: 0.00
- Compound: "O=[As]O [NaAsO2, sodium arsenite]"
  Measured Target: "NIH3T3 cells overexpressing RhoA"
  Value Reported: 0.07
- Compound: "O=CN/C=C/c1cc(O)ccc1O"
  Measured Target: "NIH3T3 cells overexpressing RhoA"
  Value Reported: 0.14
- Compound: "C=C[C@]1(C)CC[C@@H](C(=C)C)C[C@H]1C(=C)C"
  Measured Target: "NIH3T3 cells overexpressing RhoA"
  Value Reported: 0.00
- Compound: "CC(=O)OCOC(=O)CN(CC(=O)OCOC(C)=O)c1ccccc1OCCOc1ccccc1N(CC(=O)OCOC(C)=O)CC(=O)OCOC(C)=O"
  Measured Target: "NIH3T3 cells overexpressing RhoA"
  Value Reported: 0.00
- Compound: "COC(=O)[C@@]1(O)C[C@H]2O[C@]1(C)n1c3ccccc3c3c4c(c5c6ccccc6n2c5c31)C(=O)NC4 [K252a]"
  Measured Target: "NIH3T3 cells overexpressing RhoA"
  Value Reported: 0.10
- Compound: "CCCC[C@@H](C)/C=C(C)/C=C(\\C)C(=O)NC1=C[C@@](O)(/C=C/C=C/C=C/C(=O)NC2=C(O)CCC2=O)[C@@H]2O[C@@H]2C1=O"
  Measured Target: "NIH3T3 cells overexpressing RhoA"
  Value Reported: "−0.04"
- Compound: "CO[C@H]1[C@@H](OC)C[C@H](C)[C@@H](OC)C2=CC(=O)C=C(NC(=O)/C(C)=C/C=C\\[C@H](OC)[C@@H](OC(N)=O)/C(C)=C/[C@@H]1C)C2=O"
  Measured Target: "NIH3T3 cells overexpressing RhoA"
  Value Reported: 0.13
- Compound: "C[C@@H]1O[C@@H](O[C@H]2C[C@@H](O)[C@]3(CO)[C@H]4[C@H](O)C[C@]5(C)[C@@H](C6=CC(=O)OC6)CC[C@]5(O)[C@@H]4CC[C@]3(O)C2)[C@H](O)[C@H](O)[C@H]1O"
  Measured Target: "NIH3T3 cells overexpressing RhoA"
  Value Reported: 0.15
- Compound: "O=c1c(-c2ccc(O)cc2)coc2cc(O)cc(O)c12"
  Measured Target: "NIH3T3 cells overexpressing RhoA"
  Value Reported: 0.31
- Compound: "COc1ccc2c(c1)CC[C@@H]1[C@@H]2CC[C@]2(C)[C@@H](NCCCCCCN3C(=O)C=CC3=O)CC[C@@H]12"
  Measured Target: "NIH3T3 cells overexpressing RhoA"
  Value Reported: 0.12
- Compound: "CCCC[C@@H](C=O)NC(=O)[C@H](CC(C)C)NC(=O)[C@H](CC(C)C)NC(C)=O [ALLN] (Ac-Leu-Leu-[Nle]-aldehyde)"
  Measured Target: "NIH3T3 cells overexpressing RhoA"
  Value Reported: 0.00
- Compound: "CN[C@@H]1C[C@H]2O[C@@](C)([C@@H]1OC)n1c3ccccc3c3c4c(c5c6ccccc6n2c5c31)C(=O)NC4"
  Measured Target: "NIH3T3 cells overexpressing RhoA"
  Value Reported: 0.15
- Compound: "CC(C)(C)C(=O)Oc1ccc(S(=O)(=O)Nc2ccccc2C(=O)NCC(=O)O)cc1"
  Measured Target: "NIH3T3 cells overexpressing RhoA"
  Value Reported: 0.11
- Compound: "C=CC1=C(C)c2cc3[n-]c(cc4nc(cc5[n-]c(cc1n2)c(C)c5CCC(=O)O)C(CCC(=O)O)=C4C)c(C)c3C=C.[Cl-].[Cl-].[Sn+4]"
  Measured Target: "NIH3T3 cells overexpressing RhoA"
  Value Reported: 0.14
- Compound: "Nc1nc2nc[nH]c2c(=S)[nH]1"
  Measured Target: "NIH3T3 cells overexpressing RhoA"
  Value Reported: 0.69
- Compound: "C[C@@H]1C[C@@H]([C@H](O)CC2CC(=O)NC(=O)C2)C(=O)[C@@H](C)C1 [CHX, cycloheximide]"
  Measured Target: "NIH3T3 cells overexpressing RhoA"
  Value Reported: 0.14
- Compound: "COC[C@H]1OC(=O)c2coc3c2[C@@]1(C)C1=C(C3=O)[C@@H]2CCC(=O)[C@@]2(C)C[C@H]1OC(C)=O"
  Measured Target: "NIH3T3 cells overexpressing RhoA"
  Value Reported: 0.24
